- experiment_summary: Pharmacokinetics and tissue distribution in CD-1 mice
- Type: in vivo
- protocol_conditions: female, mouse, brain, IV 5 mg/kg
recorded_metric: half-life (min)
Report the figure in min without appending any unit label.

Recorded half-life for O=C1C(NCc2ccccc2)=CC2=NCCc3c[nH]c1c32 [BA-TPQ] , please?
12.6

---

- experiment_summary: Pharmacokinetics and tissue distribution in nude mice
- Format: in vivo
- protocol_conditions: female, nude (nu/nu), mouse, kidneys, IV 5 mg/kg
recorded_metric: Cmax (ng/mL)
Report the figure in ng/mL without appending any unit label.

Recorded Cmax for "O=C1C(NCc2ccccc2)=CC2=NCCc3c[nH]c1c32" , please?
20800
